Please provide measured log10(EC50) for the entries that follow.
Biological target: PD-1/PD-L1 (Homo sapiens, UniProt Q9NZQ7)
Construct: 60535 (PD-1/NFAT-Reporter-Jurkat); Jurkat cells expressing PD-1
Sequence (Q9NZQ7 19-290): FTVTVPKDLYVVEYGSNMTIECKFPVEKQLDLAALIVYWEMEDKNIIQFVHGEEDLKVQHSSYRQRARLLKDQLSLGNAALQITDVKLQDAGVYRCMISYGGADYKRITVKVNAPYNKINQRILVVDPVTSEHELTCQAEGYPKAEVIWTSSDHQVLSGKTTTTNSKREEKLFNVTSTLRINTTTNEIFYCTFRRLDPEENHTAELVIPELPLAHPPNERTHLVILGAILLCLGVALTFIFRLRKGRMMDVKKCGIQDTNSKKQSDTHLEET
Assay: Detection of biological activity of PD-1/PD-L1 signaling inhibition at the cellular level (NFAT luciferase reporter, PD-1/NFAT-Reporter-Jurkat cells co-cultured with TCR activator/PD-L1-CHO cells)
Settings: PD-1/NFAT-Reporter-Jurkat + TCR activator/PD-L1-CHO co-culture, 6 hours; Atezolizumab as positive control
The common logarithm of EC50 in nM is what is listed.

input: Return log10(EC50) for the following compound: N#Cc1cncc(COc2cc(Cn3ncc4c(-c5cccc(-c6ccc(CNC[C@@H]7CCC(=O)N7)cc6)c5Cl)cccc43)c(Cl)cc2CN2CC[C@@H](C(=O)O)C2)c1
output: 2.12

input: Return log10(EC50) for the following compound: COc1cc(-c2cccc(-c3cccc4c3cnn4Cc3cc(OC)c(CNC[C@H]4CC[C@H](C(=O)O)CC4)cc3Cl)c2Cl)ccc1CNC[C@@H]1CCC(=O)N1
output: 1.58

input: Return log10(EC50) for the following compound: COc1cc(Cn2ncc3c(-c4cccc(-c5ccc(CNC[C@@H]6CCC(=O)N6)cc5)c4Cl)cccc32)c(Cl)cc1CN1C[C@H](O)C[C@H]1C(=O)O
output: 2.54

input: Return log10(EC50) for the following compound: O=C(O)COc1cc(Cn2ncc3c(-c4cccc(-c5ccc(CNC[C@@H]6CCC(=O)N6)cc5)c4Cl)cccc32)c(Cl)cc1CNCCO
output: 2.60

input: Return log10(EC50) for the following compound: CN1C(=O)CC[C@H]1CNCc1ccc(-c2cccc(-c3cccc4c3cnn4Cc3cc(OCc4cncc(C#N)c4)c(CN[C@@H](CO)C(=O)O)cc3Cl)c2Cl)cc1
output: 2.21

input: Return log10(EC50) for the following compound: COc1cc(-c2cccc(-c3cccc4c3cnn4Cc3cc(OC)c(CN4CC[C@@H](C(=O)O)C4)cc3Cl)c2Cl)ccc1CNC[C@@H]1CCC(=O)N1
output: 1.96

----------
Molecular target: PD-1/PD-L1 (Homo sapiens)
Construct: 60535 (PD-1/NFAT-Reporter-Jurkat); Jurkat cells expressing PD-1
Assay: Detection of biological activity of PD-1/PD-L1 signaling inhibition at the cellular level (NFAT luciferase reporter, PD-1/NFAT-Reporter-Jurkat cells co-cultured with TCR activator/PD-L1-CHO cells)
Conditions: PD-1/NFAT-Reporter-Jurkat + TCR activator/PD-L1-CHO co-culture, 6 hours; Atezolizumab as positive control
Please provide measured log10 EC50 for the entries that follow.
The common logarithm of EC50 in µM is what is listed.

input: Return log10 EC50 for the following compound: N#Cc1cncc(COc2cc(Cn3ncc4c(-c5cccc(-c6ccc(CNC[C@@H]7CCC(=O)N7)cn6)c5Cl)cccc43)c(Cl)cc2CN[C@@H](CO)C(=O)O)c1
output: -0.23

input: Return log10 EC50 for the following compound: COc1cc(Cn2ncc3c(-c4cccc(-c5cc(F)c(CNC[C@@H]6CCC(=O)N6)c(OC)c5)c4Cl)cccc32)c(C#N)cc1CN(C)[C@H]1C[C@H](C(=O)O)C1
output: -1.82

input: Return log10 EC50 for the following compound: COc1cc(Cn2ncc3c(-c4cccc(-c5ccc(CNC[C@@H]6CCC(=O)N6)cc5)c4Cl)cccc32)c(Cl)cc1CNCC(=O)O
output: -0.61

input: Return log10 EC50 for the following compound: COc1nc(-c2cccc(-c3cccc4c3cnn4Cc3nc(OC)c(CN(C)C45CCC(C(=O)O)(CC4)CC5)cc3Cl)c2Cl)ccc1CNC[C@@H]1CCC(=O)N1
output: -1.39

input: Return log10 EC50 for the following compound: COc1cc(Cn2ncc3c(-c4cccc(-c5cc(F)c(CNC[C@@H]6CCCC(=O)N6)c(OC)c5)c4Cl)cccc32)c(Cl)cc1CN(C)C12CCC(C(=O)O)(CC1)CC2
output: -1.16
